- TESTED_SYSTEM: flavin binding site of complex I (IF) (Rattus norvegicus)
- Construct: freshly isolated muscle mitochondria were assayed; from tissue; host or cells: rat skeletal muscle mitochondria (Wistar, Harlan Laboratories)
- PROCEDURE_DETAILS: High-throughput screen: ROS production from flavin binding site of complex I (IF)
- Assay type: biochemical
- CONDITION_CONTEXT: Table 9; percent change in ROS from DMSO controls
MEASURED_ENDPOINT: IF
Please reply with the number alone, leaving off any unit.

Examples from the recorded data:
- MOLECULE: "O=S(=O)(Nc1ccc(Br)cc1)c1ccc(C2CCCCC2)cc1 [Compound 8]"
  IF: "−4.2"
- MOLECULE: "CN(C)CCCN(CCCN(C)C)Cc1cccnc1 [Compound 33]"
  IF: "−3.0"
- MOLECULE: "Cc1ccc(S(=O)(=O)Nc2nnc(C)s2)cc1 [Compound 27]"
  IF: "−19.6"

*Q* Which measured IF value corresponds to O=C(O)/C=C/C(=O)Nc1ccc(/C=C/c2ccccc2)cc1 [Compound 49] ?
*A* 1.0

*Q* Which measured IF value corresponds to O=[N+]([O-])c1ccc(Oc2ccc(S(=O)(=O)Nc3ccc4c(c3)OCCO4)cc2)cc1 [Compound 85] ?
*A* 0.5

* * *

- System: ubiquinone binding site of complex I (IQ)
- PROCEDURE_DETAILS: High-throughput screen: ROS production from ubiquinone binding site of complex I (IQ), isolated skeletal muscle mitochondria
- Type: biochemical, rat
- CONDITION_CONTEXT: Table 8; percent change in ROS from DMSO controls
MEASURED_ENDPOINT: IQ

Examples from the recorded data:
- MOLECULE: "Cl.OC12CCCCC1C(c1cccc(Cl)c1)NCC2 (centres unmarked)"
  MEASURED_ENDPOINT: "IQ"
  RESULT: "−2.8"
- MOLECULE: "COc1ccc(-c2ccccc2)cc1NCC1=CC[C@H]2C[C@@H]1C2(C)C"
  MEASURED_ENDPOINT: "IQ"
  RESULT: 0.2
- MOLECULE: "COc1cc(CN(CCN(C)C)Cc2ccccc2)cc(OC)c1"
  MEASURED_ENDPOINT: "IQ"
  RESULT: "−1.4"
- MOLECULE: "Fc1ccc(SCCc2ccccn2)cc1"
  MEASURED_ENDPOINT: "IQ"
  RESULT: 7.9

Consider the additional molecule presented here.
*Q* Which measured IQ value corresponds to COc1ccc(NC(=S)NC(=O)c2ccco2)cc1 ?
*A* −50

* * *

- TESTED_SYSTEM: outer ubiquinone binding site of complex III (IIIQO) (Rattus norvegicus, UniProt P00159+P20788)
- Construct: freshly isolated muscle mitochondria were assayed; from tissue; host or cells: rat skeletal muscle mitochondria (Wistar, Harlan Laboratories)
- PROCEDURE_DETAILS: High-throughput screen: ROS production from outer ubiquinone binding site of complex III (IIIQO)
- Assay type: biochemical
- CONDITION_CONTEXT: Table 4; 5 mM succinate, 4 μM rotenone, 2.5 μM antimycin A; compounds 2.5 μM; percent change from DMSO; read-out: % Reduction in ROS production (IIIQO)
Given measured inhibition at 2.5 µM, output 1.0 if it is greater than or equal to 30% and 0.0 if not.

*Q* Determine whether this compound has inhibition at 2.5 µM no lower than 30%: c1ccc(C2CCC(Nc3ccc4c(c3)OCO4)CC2)cc1 (stereo not drawn) [Compound 77]
*A* 0.0

*Q* Determine whether this compound has inhibition at 2.5 µM no lower than 30%: COC(=O)c1ccc(CN(CCc2ccccc2)Cc2ccccc2)cc1 [Compound 43]
*A* 0.0

*Q* Determine whether this compound has inhibition at 2.5 µM no lower than 30%: Cc1ccc(CCSc2ccc(F)cc2)cn1 [Compound 35]
*A* 1.0

*Q* Determine whether this compound has inhibition at 2.5 µM no lower than 30%: CC1=CC(C)(C)N(Cc2ccc([N+](=O)[O-])cc2)c2ccccc21 [Compound 37]
*A* 1.0

*Q* Determine whether this compound has inhibition at 2.5 µM no lower than 30%: COc1ccc(Cl)cc1N(Cc1ccccc1)Cc1ccccc1 [Compound 34]
*A* 1.0

* * *

- TESTED_SYSTEM: flavin binding site of complex I (IF) (Rattus norvegicus, UniProt Q5XIH3)
- Construct: freshly isolated muscle mitochondria were assayed; from tissue; host or cells: rat skeletal muscle mitochondria (Wistar, Harlan Laboratories)
- Sequence (Q5XIH3 21-464 limits assumed, one chain of several): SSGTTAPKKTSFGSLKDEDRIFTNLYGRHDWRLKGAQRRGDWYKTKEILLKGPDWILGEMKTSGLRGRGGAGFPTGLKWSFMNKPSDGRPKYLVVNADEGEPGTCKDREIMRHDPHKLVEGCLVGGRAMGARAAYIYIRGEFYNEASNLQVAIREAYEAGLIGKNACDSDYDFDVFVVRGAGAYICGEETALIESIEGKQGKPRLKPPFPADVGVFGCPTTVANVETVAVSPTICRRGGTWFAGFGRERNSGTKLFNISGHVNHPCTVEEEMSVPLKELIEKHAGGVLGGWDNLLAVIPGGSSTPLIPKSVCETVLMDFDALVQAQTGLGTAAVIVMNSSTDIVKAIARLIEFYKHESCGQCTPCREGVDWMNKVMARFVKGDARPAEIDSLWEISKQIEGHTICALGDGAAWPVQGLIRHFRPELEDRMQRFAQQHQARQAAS
- PROCEDURE_DETAILS: High-throughput screen: ROS production from flavin binding site of complex I (IF)
- Assay type: biochemical
- CONDITION_CONTEXT: Table 7; percent change in ROS from DMSO controls; read-out: IF
Property: inhibition at 2.5 µM; scope: individual molecules

Examples from the recorded data:
- MOLECULE: "c1cc2c3c(ccc(CSCCc4ccncc4)c3c1)CC2 [Compound 36]"
  inhibition at 2.5 µM: "-0.6%"
- MOLECULE: "Cc1ccc(NC(=O)CCC(=O)O)cc1 [Compound 67]"
  inhibition at 2.5 µM: "10.1%"
- MOLECULE: "O=S(=O)(Nc1ccc(Br)cc1)c1ccc(C2CCCCC2)cc1 [Compound 8]"
  inhibition at 2.5 µM: "4.2%"
- MOLECULE: "O=C(Nc1ccc(-c2nc3ccccc3[nH]2)cc1)C1CC1 [Compound 66]"
  inhibition at 2.5 µM: "0.2%"

Consider the additional molecule presented here.
*Q* Hi! What's the reported inhibition at 2.5 µM for CN(C)CCN(Cc1ccccc1)Cc1ccc(C(F)(F)F)cc1 [Compound 29] on flavin binding site of complex I (IF) (Rattus norvegicus, UniProt Q5XIH3)?
*A* 18.1%

* * *

- TESTED_SYSTEM: succinate dehydrogenase/complex II (SDH) (Rattus norvegicus, UniProt P21913+Q641Z9+Q6PCT8+Q920L2)
- Construct: freshly isolated muscle mitochondria were assayed; from tissue; host or cells: rat skeletal muscle mitochondria (Wistar, Harlan Laboratories)
- Sequence (Q920L2 35-656): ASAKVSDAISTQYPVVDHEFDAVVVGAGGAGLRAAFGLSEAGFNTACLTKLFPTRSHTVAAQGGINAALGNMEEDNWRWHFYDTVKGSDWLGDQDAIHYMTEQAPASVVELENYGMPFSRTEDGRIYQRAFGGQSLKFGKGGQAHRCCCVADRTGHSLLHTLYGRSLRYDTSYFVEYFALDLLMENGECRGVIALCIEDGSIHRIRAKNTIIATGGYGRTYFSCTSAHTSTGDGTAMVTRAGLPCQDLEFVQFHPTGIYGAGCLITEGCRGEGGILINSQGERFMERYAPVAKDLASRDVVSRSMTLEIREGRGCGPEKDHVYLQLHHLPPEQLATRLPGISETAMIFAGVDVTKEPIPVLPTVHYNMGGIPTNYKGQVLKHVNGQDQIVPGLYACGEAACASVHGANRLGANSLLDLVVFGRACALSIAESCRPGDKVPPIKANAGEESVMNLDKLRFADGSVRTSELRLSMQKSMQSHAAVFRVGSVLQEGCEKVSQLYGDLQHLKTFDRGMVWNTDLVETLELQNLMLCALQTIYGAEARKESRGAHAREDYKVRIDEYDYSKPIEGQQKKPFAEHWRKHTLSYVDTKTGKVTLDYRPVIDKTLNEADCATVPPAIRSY
- Sequence (P21913 31-282): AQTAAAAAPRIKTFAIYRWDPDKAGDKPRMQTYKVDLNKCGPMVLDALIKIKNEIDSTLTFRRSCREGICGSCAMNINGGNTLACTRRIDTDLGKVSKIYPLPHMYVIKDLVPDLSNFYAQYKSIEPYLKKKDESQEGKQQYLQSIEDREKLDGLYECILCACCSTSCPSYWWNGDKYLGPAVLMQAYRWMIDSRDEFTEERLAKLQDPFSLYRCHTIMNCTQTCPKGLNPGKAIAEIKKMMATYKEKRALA
- Sequence (Q641Z9 30-169 limits assumed): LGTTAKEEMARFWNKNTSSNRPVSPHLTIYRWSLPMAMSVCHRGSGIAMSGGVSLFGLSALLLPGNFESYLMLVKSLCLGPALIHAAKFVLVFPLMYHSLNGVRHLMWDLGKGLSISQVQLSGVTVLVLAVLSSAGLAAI
- Sequence (Q6PCT8 57-159): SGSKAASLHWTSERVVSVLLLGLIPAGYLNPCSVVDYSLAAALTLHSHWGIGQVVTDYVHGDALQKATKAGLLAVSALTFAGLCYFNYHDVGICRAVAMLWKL
- PROCEDURE_DETAILS: High-throughput screen: ROS production from succinate dehydrogenase/complex II (SDH)
- Type: biochemical
- CONDITION_CONTEXT: Table 7; percent change in ROS from DMSO controls
Property: inhibition at 2.5 µM; scope: individual compounds
The reply should be a number in %, with the unit left off.

- COMPOUND: "COc1ccccc1/C=C/c1nc(O)nc(O)c1[N+](=O)[O-]"
  MEASURED_ENDPOINT: "inhibition at 2.5 µM"
  UNIT_ABBREV: "%"
  READOUT_NUMBER: -4.2
- COMPOUND: "Cc1ccc(C(C)C)c(OCC(O)CN2CCN(Cc3ccccc3)CC2)c1.Cl.Cl (centres unmarked)"
  MEASURED_ENDPOINT: "inhibition at 2.5 µM"
  UNIT_ABBREV: "%"
  READOUT_NUMBER: -1.7
- COMPOUND: "CCOc1ccc(C(=O)Nc2ccc(-c3nc4ccccc4[nH]3)cc2)cc1"
  MEASURED_ENDPOINT: "inhibition at 2.5 µM"
  UNIT_ABBREV: "%"
  READOUT_NUMBER: -9.8
- COMPOUND: "CCN(CC)CCN(CC)Cc1ccc(Cl)cc1Cl"
  MEASURED_ENDPOINT: "inhibition at 2.5 µM"
  UNIT_ABBREV: "%"
  READOUT_NUMBER: 0.1
- COMPOUND: "O=C(O)CCC(=O)Nc1ccc(Cl)cc1"
  MEASURED_ENDPOINT: "inhibition at 2.5 µM"
  UNIT_ABBREV: "%"
  READOUT_NUMBER: -1.5
- COMPOUND: "O=C(O)CCC(=O)Nc1cccc(-c2nc3ccccc3[nH]2)c1"
  MEASURED_ENDPOINT: "inhibition at 2.5 µM"
  UNIT_ABBREV: "%"
  READOUT_NUMBER: 3.4
- COMPOUND: "O=C(O)CCC(=O)Nc1ccc(-c2nc3cc(C(=O)c4ccccc4)ccc3[nH]2)cc1"
  MEASURED_ENDPOINT: "inhibition at 2.5 µM"
  UNIT_ABBREV: "%"
  READOUT_NUMBER: 6.3
- COMPOUND: "O=C(O)CCC(=O)Nc1ccc(-c2nc3cc(NC(=O)CCC(=O)O)ccc3[nH]2)cc1"
  MEASURED_ENDPOINT: "inhibition at 2.5 µM"
  UNIT_ABBREV: "%"
  READOUT_NUMBER: -4.2

*Q* Which measured inhibition at 2.5 µM value corresponds to Cc1ccc(S(=O)(=O)Nc2nnc(C)s2)cc1 ?
*A* -0.8

*Q* Which measured inhibition at 2.5 µM value corresponds to Cc1cc(C)c(S(=O)(=O)N2CCCC2=O)c(C)c1 ?
*A* 2.7

*Q* Which measured inhibition at 2.5 µM value corresponds to O=C(O)CCC(=O)Nc1ccc(-c2nc3ccccc3o2)cc1 ?
*A* -2.1

*Q* Which measured inhibition at 2.5 µM value corresponds to COc1cccc(/C=C/C(=O)c2c(O)cc(C)oc2=O)c1O ?
*A* 3.4

*Q* Which measured inhibition at 2.5 µM value corresponds to Cc1ccc(CCSc2ccc(F)cc2)cn1 ?
*A* -0.2

*Q* Which measured inhibition at 2.5 µM value corresponds to O=C(O)CCC(=O)Nc1ccc(-c2nc3cc4ccccc4cc3[nH]2)cc1 ?
*A* 4.5

*Q* Which measured inhibition at 2.5 µM value corresponds to O=C(COc1ccc(Cl)cc1Cl)Nc1ccc(F)cc1F ?
*A* 1.5

*Q* Which measured inhibition at 2.5 µM value corresponds to CN(C)CCN(Cc1ccccc1)Cc1ccc(C(F)(F)F)cc1 ?
*A* 0.1

*Q* Which measured inhibition at 2.5 µM value corresponds to O=C(O)CCC(=O)Nc1ccc(-c2nc3ccccc3s2)cc1 ?
*A* -0.2

*Q* Which measured inhibition at 2.5 µM value corresponds to O=C(O)/C=C/C(=O)Nc1ccc(/C=C/c2ccccc2)cc1 ?
*A* 1

*Q* Which measured inhibition at 2.5 µM value corresponds to CCCCCCNC(=O)CCC(=O)O ?
*A* -4.4

*Q* Which measured inhibition at 2.5 µM value corresponds to c1cc2c3c(ccc(CSCCc4ccncc4)c3c1)CC2 ?
*A* 1.1
